assay: Unbound intrinsic glucuronidation clearance in human kidney microsomes at 1 uM after 30 to 60 mins by LC-MS/MS analysis in presence of UDP-glucuronosyltransferase; format: ADME, microsome
propertyLabel: CL free (µL/min/mg)
Answers are plain numbers, in µL/min/mg.

{"compound": "O=C(O)Cc1ccccc1Nc1c(Cl)cccc1Cl [DICLOFENAC]", "CL free / µL/min/mg": 177}
{"compound": "COc1c(C)c2c(c(O)c1C/C=C(\\C)CCC(=O)O)C(=O)OC2 [MYCOPHENOLIC ACID]", "CL free / µL/min/mg": 293}
{"compound": "CCCc1nc2c(C)cc(-c3nc4ccccc4n3C)cc2n1Cc1ccc(-c2ccccc2C(=O)O)cc1", "CL free / µL/min/mg": 9.72}
{"compound": "Cc1ccc(C)c(OCCCC(C)(C)C(=O)O)c1 [GEMFIBROZIL]", "CL free / µL/min/mg": 265}
{"compound": "O=C1[C@H](CC[C@H](O)c2ccc(F)cc2)[C@@H](c2ccc(O)cc2)N1c1ccc(F)cc1 [EZETIMIBE]", "CL free / µL/min/mg": 295}

Here's the next entry for you.
q: May I ask what CL free has been recorded for C=CCN1CC[C@]23c4c5ccc(O)c4O[C@H]2C(=O)CC[C@@]3(O)[C@H]1C5 [NALOXONE] ?
a: 10.9

Source of measurements: ChEMBL document CHEMBL3526056
